Target: CDK4 (Homo sapiens, UniProt P11802)
Construct: endogenous in cells
Sequence (P11802 whole entry): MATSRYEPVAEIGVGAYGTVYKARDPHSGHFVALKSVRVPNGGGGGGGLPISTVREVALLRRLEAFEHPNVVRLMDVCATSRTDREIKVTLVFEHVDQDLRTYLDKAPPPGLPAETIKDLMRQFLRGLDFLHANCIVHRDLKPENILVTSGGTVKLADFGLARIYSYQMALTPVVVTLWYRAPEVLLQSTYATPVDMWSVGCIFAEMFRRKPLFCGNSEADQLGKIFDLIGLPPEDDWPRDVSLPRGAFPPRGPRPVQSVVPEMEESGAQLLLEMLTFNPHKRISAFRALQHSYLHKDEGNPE
Test: CDK4 degradation (DC50, Dmax)
Format: cell-based
This section presents compounds with their documented Dmax values.

Recorded results for 4 compounds are shown here.
* Cc1nc2c(F)cc(-c3nc(Nc4ccc(CN5CCN(C6CCN(c7ccc8c(c7)C(=O)N(C7CCC(=O)NC7=O)C8=O)CC6)CC5)cn4)ncc3F)cc2n1C(C)C (centres unmarked) [Compound 165] | > 80%
* CC(=O)c1c(C)c2cnc(Nc3ccc(N4CCN(CC5CN(c6cccc7c6C(=O)N(C6CCC(=O)NC6=O)C7=O)C5)CC4)cn3)nc2n(C2CCCC2)c1=O (centres unmarked) [Compound 81] | > 80%
* CC(=O)c1c(C)c2cnc(Nc3ccc(N4CCN(C(=O)N5CCN(CCN6CCC(c7ccc8c(c7)C(=O)N(C7CCC(=O)NC7=O)C8=O)CC6)CC5)CC4)cn3)nc2n(C2CCCC2)c1=O (centres unmarked) [Compound 27] | > 60%
* CC(=O)c1c(C)c2cnc(Nc3ccc(N4CCN(C5CN(c6cccc7c6C(=O)N(C6CCC(=O)NC6=O)C7=O)C5)CC4)cn3)nc2n(C2CCCC2)c1=O (centres unmarked) [Compound 79] | > 60%

# ---- query compound ----
For reference, reported Dmax for Cc1nc2c(F)cc(-c3nc(Nc4ccc(CN5CCN(CCCNc6ccc7c(c6)CN(C6CCC(=O)NC6=O)C7=O)CC5)cn4)ncc3F)cc2n1C(C)C (centres unmarked) [Compound 74] stands at > 80%

Source of measurements: patent US20230295118A1
